Reported Bliss excess values follow for various compounds
tested on: NCI-H1993 (Lung Adenocarcinoma); assay: Bliss excess, mean over the matrix (fraction); higher = more synergy
Answer with a number only.

Give NCI-H1993 (Lung Adenocarcinoma) Bliss excess for C=CCn1c(=O)c2cnc(Nc3ccc(N4CCN(C)CC4)cc3)nc2n1-c1cccc(C(C)(C)O)n1 [AZD1775] + C[C@@H]1COCCN1C2=NC(=NC(=C2)C3(CC3)[S@](=N)(=O)C)C4=C5C=CNC5=NC=C4 [AZD6738] (first compound max 1 µM, partner max 10 µM)
-0.0727

Give NCI-H1993 (Lung Adenocarcinoma) Bliss excess for CN(C)CCCOc1ccc(-c2ccc3ncc4c(c3c2)n(C2CCOCC2)c(=O)n4C)cn1 [AZD0156] + CCN(CCO)CCCOc1ccc2c(Nc3cc(CC(=O)Nc4cccc(F)c4)[nH]n3)ncnc2c1 [AZD2811] (first compound max 1 µM, 7x7, partner max 1 µM)
-0.0335

###

test system: NCI-H1355 (Lung Adenocarcinoma); assay: combination Emax (second highest fraction inhibited in the dose matrix, 72 h); higher = more inhibition; extreme values may be limits of the assay
value-type: combination Emax

C=CCn1c(=O)c2cnc(Nc3ccc(N4CCN(C)CC4)cc3)nc2n1-c1cccc(C(C)(C)O)n1 [AZD1775] + Nc1ccn([C@@H]2O[C@H](CO)[C@@H](O)C2(F)F)c(=O)n1 [Gemcitabine] (first compound max 1 µM, partner max 0.3 µM) = 0.614
NC1(C(=O)N[C@@H](CCO)c2ccc(Cl)cc2)CCN(c2ncnc3[nH]ccc23)CC1 [Capivasertib] + CC(C)n1c(=O)n(C)c2cnc3cc(F)c(-c4ccc(OCCCN5CCCCC5)nc4)cc3c21 [AZD1390] (first compound max 10 µM, 7x7, partner max 0.3 µM) = 0.273

Let us move to another entry and its combination Emax.
Give NCI-H1355 (Lung Adenocarcinoma) combination Emax for COc1cccc(OCCCN)c1-c1cc(Nc2cnc(C#N)cn2)n[nH]1 [Prexasertib] + C=CCn1c(=O)c2cnc(Nc3ccc(N4CCN(C)CC4)cc3)nc2n1-c1cccc(C(C)(C)O)n1 [AZD1775] (first compound max 1 µM, partner max 1 µM)
0.756

###

test system: NCI-H1838 (Lung Adenocarcinoma); test: Bliss excess, mean over the matrix (fraction); higher = more synergy
value-type: Bliss excess
Answer with a number only.

CC1(C)CCC(CN2CCN(c3ccc(C(=O)NS(=O)(=O)c4ccc(NCC5CCOCC5)c([N+](=O)[O-])c4)c(Oc4cnc5[nH]ccc5c4)c3)CC2)=C(c2ccc(Cl)cc2)C1 [Venetoclax] + COc1cc(Nc2ncc3c(n2)-c2ccc(Cl)cc2C(c2c(F)cccc2OC)=NC3)ccc1C(=O)O [Alisertib] (first compound max 1 µM, 7x7, partner max 10 µM) = -0.0183
Cc1c2c(nn1C)CSCc1cc(n(C)n1)CSc1cc(c3ccccc3c1)OCCCc1c(C(=O)O)n(C)c3c-2c(Cl)ccc13 [AZD5991] + CN(C)CCCOc1ccc(-c2ccc3ncc4c(c3c2)n(C2CCOCC2)c(=O)n4C)cn1 [AZD0156] (first compound max 1 µM, 7x7, partner max 1 µM) = 0.043

Give NCI-H1838 (Lung Adenocarcinoma) Bliss excess for Cc1c2c(nn1C)CSCc1cc(n(C)n1)CSc1cc(c3ccccc3c1)OCCCc1c(C(=O)O)n(C)c3c-2c(Cl)ccc13 [AZD5991] + C1CN(CCC1(C(=O)N[C@@H](CCO)C2=CC=C(C=C2)Cl)N)C3=NC=NC4=C3C=CN4 [Capivasertib] (first compound max 1 µM, 7x7, partner max 3 µM)
0.0017
